# EC50 per record follows
Tested on: HMPV clinical isolate TN/1501/A1
Test: HMPV antiviral assay Method-B (clinical isolate TN/1501/A1 in LLC-MK2 cells, ATP-Lite readout)
Format: cell-based, Human metapneumovirus (HMPV)
Settings: hMPV WT1501 (clinical isolate TN/1501/A1), 6 days

Given the entry COc1cc(C(=O)NCC(O)(c2cc3c(c(-c4ccc5ccn(C(F)F)c5c4)n2)OCC3(C)C(N)=O)C(F)(F)F)cc2cn(C3CC3)nc12 (stereo not drawn) , what EC50 was observed with HMPV clinical isolate TN/1501/A1?
> 500 nM

Similarly, `COc1cc(C(=O)NC[C@](O)(c2cc3c(c(-c4cc(Br)c(F)cc4F)n2)OC[C@]3(C)C(N)=O)C(F)(F)F)cc2cn(C3CC3)nc12` ?
< 500 nM

// same read-out, input: `COc1cc(C(=O)NC[C@@](O)(c2cc3c(c(-c4ccc5c(c4)OC(F)(F)C(F)(F)O5)n2)OC[C@]3(C)C(N)=O)C(F)(F)F)cc2cn(C3CC3)nc12`
> 500 nM

---

System: HMPV clinical isolate TN/1501/A1
Test: HMPV antiviral assay Method-B (clinical isolate TN/1501/A1 in LLC-MK2 cells, ATP-Lite readout)
Type: cell-based, Human metapneumovirus (HMPV)
Conditions: human metapneumovirus, LLC-MK2, 144 h, hMPV WT1501 (clinical isolate TN/1501/A1), 6 days
measure: EC50

Sample records with EC50:
>>> print(df.to_string())
                           smiles_structure  test_result
0  COc1cc(C(=O)NC[C@](O)(c2cc3c(c(-c4ccc(F)cc4)n2)OC[C@]3(C)C(N)=O)C2CC2)cc2cc(C(F)F)nnc12     > 500 nM
1  COc1cc(C(=O)NC[C@](O)(c2cc3c(c(-c4ccc(F)cc4)n2)OC[C@]3(C)C(N)=O)C2(F)CC2)cc2sc(C)nc12     < 500 nM
2  Cc1cnc2c(OC(F)(F)F)cc(C(=O)NC[C@](O)(c3cc4c(c(-c5ccc6c(c5)OC(F)(F)O6)n3)OC[C@]4(C)C(N)=O)C3CC3)cc2c1     < 500 nM
3  COc1cc(C(=O)NC[C@](O)(c2cc3c(c(-c4cc(F)c(F)cc4F)n2)OC[C@]3(C)C(N)=O)C2CC2)cc2cc(Cl)c(C)nc12     < 500 nM

Value lookup for EC50; key = `COc1cc(C(=O)NC[C@](O)(c2cc3c(c(-c4ccc5c(c4)OC(F)(F)O5)n2)OC[C@]3(C)C(N)=O)C2(F)CC2)cc2cn(C3CC3)nc12`
< 500 nM

And what about the compound `COc1cc(C(=O)NC[C@](O)(c2cc3c(c(-c4ccc(F)c(Cl)c4F)n2)OC[C@]3(C)C(N)=O)C2CC2)cc2cc(Cl)c(C)nc12` ?
< 500 nM

---

List of EC50 values.
Tested on: HMPV clinical isolate TN/1501/A1
Test: HMPV antiviral assay Method-B (clinical isolate TN/1501/A1 in LLC-MK2 cells, ATP-Lite readout)
Format: cell-based, Human metapneumovirus (HMPV)
Conditions: human metapneumovirus, LLC-MK2, 144 h, hMPV WT1501 (clinical isolate TN/1501/A1), 6 days

>>> df
                           smiles_structure                       measured_on  test_result
0  COc1cc(C(=O)NC[C@](O)(c2cc3c(c(-c4ccc(F)c(F)c4Cl)n2)OC[C@]3(C)C(N)=O)C2(F)CC2)cc2cn(C3CC3)nc12  HMPV clinical isolate TN/1501/A1     < 500 nM
1  C[C@]1(C(N)=O)COc2c1cc([C@@](O)(CNC(=O)c1cc(OC3CC3)n3nc(C4CC4)cc3c1)C(F)(F)F)nc2-c1ccc2c(c1)OC(F)(F)O2  HMPV clinical isolate TN/1501/A1     < 500 nM

Attention now turns to another entry.
Item under review: `COc1cc(C(=O)NC[C@](O)(c2cc3c(c(-c4ccc(F)c(Cl)c4)n2)OC[C@@]3(C(N)=O)C(F)F)C2CC2)cc2cc(Cl)c(C)nc12` . Reported EC50?
< 500 nM
